Measured On: rabbit erythrocyte Na^+ /H^+ exchanger (Oryctolagus cuniculus, UniProt P23791)
Construct: determine the Na^+ influx into the erythrocytes by way of Na^+ /H^+ exchange; endogenous in cells
Sequence (P23791 whole entry): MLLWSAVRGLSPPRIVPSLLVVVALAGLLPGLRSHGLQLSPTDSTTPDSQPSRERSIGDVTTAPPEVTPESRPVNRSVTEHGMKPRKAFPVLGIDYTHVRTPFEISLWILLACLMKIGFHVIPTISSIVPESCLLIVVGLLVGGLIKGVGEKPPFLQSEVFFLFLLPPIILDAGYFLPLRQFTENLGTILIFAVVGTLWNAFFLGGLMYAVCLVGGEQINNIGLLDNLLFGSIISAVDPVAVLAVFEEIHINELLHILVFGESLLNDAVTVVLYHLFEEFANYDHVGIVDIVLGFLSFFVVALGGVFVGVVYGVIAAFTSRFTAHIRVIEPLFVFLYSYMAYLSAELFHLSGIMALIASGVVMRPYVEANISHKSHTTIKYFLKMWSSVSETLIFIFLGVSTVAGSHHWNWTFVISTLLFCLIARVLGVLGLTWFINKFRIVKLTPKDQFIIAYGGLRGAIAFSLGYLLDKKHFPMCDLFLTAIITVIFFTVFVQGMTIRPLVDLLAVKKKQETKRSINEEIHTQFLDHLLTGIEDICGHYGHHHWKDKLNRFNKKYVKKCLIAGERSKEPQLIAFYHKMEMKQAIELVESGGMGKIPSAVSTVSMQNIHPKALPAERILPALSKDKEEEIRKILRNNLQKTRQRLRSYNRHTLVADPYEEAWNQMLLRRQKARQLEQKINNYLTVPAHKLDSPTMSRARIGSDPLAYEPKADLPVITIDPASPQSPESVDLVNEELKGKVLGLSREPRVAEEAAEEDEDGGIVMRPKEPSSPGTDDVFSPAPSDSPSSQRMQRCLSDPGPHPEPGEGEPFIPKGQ
Test Summary: Inhibition of the rabbit erythrocyte Na^+ /H^+ exchanger (amiloride-sensitive Na^+ influx, flame photometry)
Measurement Conditions: erythrocytes of cholesterol-fed rabbits; pH 7.4, 37° C., hyperosmolar salt/sucrose medium
Structures can show the parent of a compound that is named as a salt.
Recorded Metric: pIC50
Note on units: pIC50 is unitless, being -log10 of a concentration expressed in mol/L.

- Molecule: "NC(N)=NC(=O)c1cc(I)c(O)cc1Cl [Example 2, hydrochloride]"
  Test Value: 6.62
- Molecule: "NC(N)=NC(=O)c1cc(I)c(O)c(I)c1Cl [Example 3, hydrochloride]"
  Test Value: 7.00
- Molecule: "NC(N)=NC(=O)c1cc(C(F)(F)F)c(O)cc1Cl [Example 4, hydrochloride]"
  Test Value: 6.85

I'm curious: which pIC50 was measured for NC(N)=NC(=O)c1ccc(O)cc1Cl [Example 1, hydrochloride] tested on rabbit erythrocyte Na^+ /H^+ exchanger (Oryctolagus cuniculus, UniProt P23791)? 5.40
